Target or test system: PD-1/PD-L1 interaction (Homo sapiens)
Construct: expressed in transfected cells; host or cells: CHO cells (aAPC-PD-L1) co-cultured with Jurkat cells overexpressing PD-1 and an NFAT-luciferase reporter
Sequence (Q9NZQ7 19-290): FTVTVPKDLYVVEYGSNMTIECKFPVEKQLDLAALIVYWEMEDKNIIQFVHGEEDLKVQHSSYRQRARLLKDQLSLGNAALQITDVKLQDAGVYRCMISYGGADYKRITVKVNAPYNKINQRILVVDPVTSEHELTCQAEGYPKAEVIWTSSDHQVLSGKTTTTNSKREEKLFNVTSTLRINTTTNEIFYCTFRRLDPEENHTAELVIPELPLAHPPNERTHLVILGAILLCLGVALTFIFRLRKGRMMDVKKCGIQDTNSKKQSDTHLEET
Assay notes: PD-1/PD-L1 NFAT reporter co-culture assay
Type: cell-based
Condition: Jurkat PD-1 NFAT-luciferase cells co-cultured with aAPC-PD-L1 CHO cells, 6 hrs at 37° C.; read-out: EC50 NFAT Luciferase
Experimental readout: pEC50
Numbers only, as −log10 of the molar value.

Example compounds with recorded pEC50:
COc1nc(OCc2cccc(-c3cccc(COc4nc(OC)c(CNC[C@@H](F)C(=O)O)cc4Cl)c3C)c2C)c(Cl)cc1CNC[C@@H](F)C(=O)O
6.18
COc1nc(-c2cccc(-c3cccc4c3CC[C@@H]4Oc3nc(OC)c(CN4C[C@H](C(=O)O)[C@@H](C(C)C)C4)cc3Cl)c2Cl)ccc1CNC[C@@H]1CCC(=O)N1
7.20
Cc1c(COc2ccc(CNC[C@@H](O)CC(=O)O)cc2)cccc1-c1cccc(COc2cc(OCc3cncc(C#N)c3)c(CNC[C@@H](O)CC(=O)O)cc2Cl)c1C
5.79

I'm hoping you can list pEC50 for every compound here, please.
1. COc1nc(OC2CCc3c(-c4cccc5c4CCC5Oc4nc(OC)c(CNC[C@@H](O)CC(=O)O)cc4Cl)cccc32)c(Cl)cc1CNC[C@@H](O)CC(=O)O (stereo partly drawn)
2. O=C(O)C[C@H](O)CNCc1ccc(C(=O)N2CCc3c(-c4cccc5c4CCN5C(=O)c4ccc(CNC[C@@H](O)CC(=O)O)cc4)cccc32)cc1
3. COc1nc(OCc2cccc(-c3cccc(COc4nc(OC)c(CNC[C@@H](O)C(=O)O)cc4Cl)c3C)c2C)c(Cl)cc1CNC[C@@H](O)C(=O)O

Reply text:
6.47
4.51
6.96

This collection of values is drawn from patent US12590062B2.
